// reported viscosity for each item listed
Settings: 318.15 K; 101.33 kPa; Liquid
metric name: viscosity (mPa·s)

                                   compound  metric_name  measured_result
0  CCCC(=O)[O-].C[NH2+]CCO [N-methyl-2-hydroxyethylammonium butanoate]    viscosity            93.33
1  CC(C)C(=O)[O-].C[NH2+]CCO [2-hydroxy-N-methylethanaminium isobutyrate]    viscosity             60.1
2  CCCCC(=O)[O-].C[NH2+]CCO [2-hydroxy-N-methylethanaminium pentanoate]    viscosity            80.38
3  CCC(=O)[O-].C[NH2+]CCO [2-hydroxy-N-methylethanaminium propionate]    viscosity             70.3
4  CC(=O)[O-].C[NH2+]CCO [N-methyl-2-hydroxyethylammonium acetate]    viscosity            37.28

###

List of speed of sound values.
Settings: 289.4 K; 101.33 kPa; Liquid; Pulse-echo method
metric name: speed of sound (m/s)

>>> print(df.to_string())
                                   molecule     metric_name  measurement_unit  measured_result
0  CCCCC(=O)[O-].C[NH2+]CCO [2-hydroxy-N-methylethanaminium pentanoate]  speed of sound               m/s             1577
1  CC(C)C(=O)[O-].C[NH2+]CCO [2-hydroxy-N-methylethanaminium isobutyrate]  speed of sound               m/s           1636.3
2  CCCC(=O)[O-].C[NH2+]CCO [N-methyl-2-hydroxyethylammonium butanoate]  speed of sound               m/s             1643
3  C[NH2+]CCO.O=C[O-] [2-hydroxy-N-methylethanaminium formate]  speed of sound               m/s           1832.5
4  CCC(=O)[O-].C[NH2+]CCO [2-hydroxy-N-methylethanaminium propionate]  speed of sound               m/s           1716.2

###

Measured speed of sound values are reported for all entries that follow.
Settings: 285.9 K; 101.33 kPa; Liquid; Pulse-echo method
metric name: speed of sound (m/s)

In [3]: df
Out[3]:
                                   molecule  measurement_unit  measured_result
0  CCC(=O)[O-].C[NH2+]CCO [2-hydroxy-N-methylethanaminium propionate]               m/s             1727
1  CCCCC(=O)[O-].C[NH2+]CCO [2-hydroxy-N-methylethanaminium pentanoate]               m/s           1588.8
2  C[NH2+]CCO.O=C[O-] [2-hydroxy-N-methylethanaminium formate]               m/s           1839.3
3  CCCC(=O)[O-].C[NH2+]CCO [N-methyl-2-hydroxyethylammonium butanoate]               m/s             1655
4  CC(C)C(=O)[O-].C[NH2+]CCO [2-hydroxy-N-methylethanaminium isobutyrate]               m/s           1646.4

###

This section presents molecules with their documented mass density values.
Settings: 314.9 K; 101.33 kPa; Liquid; Vibrating tube method
metric name: mass density (kg/m3)

>>> df
                                   molecule   metric_name  measured_result
0  CC(=O)[O-].C[NH2+]CCO [N-methyl-2-hydroxyethylammonium acetate]  mass density          1090.71
1  C[NH2+]CCO.O=C[O-] [2-hydroxy-N-methylethanaminium formate]  mass density           1118.9
2  CCCC(=O)[O-].C[NH2+]CCO [N-methyl-2-hydroxyethylammonium butanoate]  mass density          1027.95
3  CCC(=O)[O-].C[NH2+]CCO [2-hydroxy-N-methylethanaminium propionate]  mass density          1060.34
4  CC(C)C(=O)[O-].C[NH2+]CCO [2-hydroxy-N-methylethanaminium isobutyrate]  mass density          1032.51
5  CCCCC(=O)[O-].C[NH2+]CCO [2-hydroxy-N-methylethanaminium pentanoate]  mass density          1004.92

###

// values below are reported mass density
Settings: 316.66 K; 101.33 kPa; Liquid; Vibrating tube method
metric name: mass density (kg/m3)

>>> df
                                   compound  measurement_unit  measured_result
0  CCCC(=O)[O-].C[NH2+]CCO [N-methyl-2-hydroxyethylammonium butanoate]             kg/m3          1026.75
1  C[NH2+]CCO.O=C[O-] [2-hydroxy-N-methylethanaminium formate]             kg/m3          1117.93
2  CC(C)C(=O)[O-].C[NH2+]CCO [2-hydroxy-N-methylethanaminium isobutyrate]             kg/m3          1031.35
3  CC(=O)[O-].C[NH2+]CCO [N-methyl-2-hydroxyethylammonium acetate]             kg/m3          1089.64
4  CCC(=O)[O-].C[NH2+]CCO [2-hydroxy-N-methylethanaminium propionate]             kg/m3          1059.18
5  CCCCC(=O)[O-].C[NH2+]CCO [2-hydroxy-N-methylethanaminium pentanoate]             kg/m3          1003.72

###

Conditions: 323.41 K; 101.33 kPa; Liquid; Pulse-echo method
metric name: speed of sound (m/s)

>>> print(df.to_string())
                                   molecule  measurement_unit  measured_result
0  CCCC(=O)[O-].C[NH2+]CCO [N-methyl-2-hydroxyethylammonium butanoate]               m/s           1535.4
1  CCC(=O)[O-].C[NH2+]CCO [2-hydroxy-N-methylethanaminium propionate]               m/s           1615.2
2  CC(C)C(=O)[O-].C[NH2+]CCO [2-hydroxy-N-methylethanaminium isobutyrate]               m/s           1539.9
3  C[NH2+]CCO.O=C[O-] [2-hydroxy-N-methylethanaminium formate]               m/s           1766.2
4  CCCCC(=O)[O-].C[NH2+]CCO [2-hydroxy-N-methylethanaminium pentanoate]               m/s           1470.8

###

Details: 321.9 K; 101.33 kPa; Liquid; Vibrating tube method
metric name: mass density (kg/m3)

                                   compound   metric_name  measured_result
0  CC(C)C(=O)[O-].C[NH2+]CCO [2-hydroxy-N-methylethanaminium isobutyrate]  mass density          1027.87
1  CCCCC(=O)[O-].C[NH2+]CCO [2-hydroxy-N-methylethanaminium pentanoate]  mass density           1000.1
2  C[NH2+]CCO.O=C[O-] [2-hydroxy-N-methylethanaminium formate]  mass density          1115.03
3  CCC(=O)[O-].C[NH2+]CCO [2-hydroxy-N-methylethanaminium propionate]  mass density          1055.66
4  CCCC(=O)[O-].C[NH2+]CCO [N-methyl-2-hydroxyethylammonium butanoate]  mass density          1023.13
5  CC(=O)[O-].C[NH2+]CCO [N-methyl-2-hydroxyethylammonium acetate]  mass density           1086.4

###

# speed of sound per entry
Details: 289.65 K; 101.33 kPa; Liquid; Pulse-echo method
metric name: speed of sound (m/s)

>>> print(df.to_string())
                                   compound  measured_result
0  CCC(=O)[O-].C[NH2+]CCO [2-hydroxy-N-methylethanaminium propionate]           1715.4
1  CCCC(=O)[O-].C[NH2+]CCO [N-methyl-2-hydroxyethylammonium butanoate]           1642.2
2  CCCCC(=O)[O-].C[NH2+]CCO [2-hydroxy-N-methylethanaminium pentanoate]           1576.2
3  CC(C)C(=O)[O-].C[NH2+]CCO [2-hydroxy-N-methylethanaminium isobutyrate]           1635.6
4  C[NH2+]CCO.O=C[O-] [2-hydroxy-N-methylethanaminium formate]             1832

###

Each entry below carries its recorded mass density.
Conditions: 282.65 K; 101.33 kPa; Liquid; Vibrating tube method
Numbers after ± are expanded uncertainties.
metric name: mass density

>>> print(df.to_string())
                                   compound      measured_result
0  CCCC(=O)[O-].C[NH2+]CCO [N-methyl-2-hydroxyethylammonium butanoate]  1049.69 ± 2.2 kg/m3
1  C[NH2+]CCO.O=C[O-] [2-hydroxy-N-methylethanaminium formate]   1136.9 ± 2.2 kg/m3
2  CCC(=O)[O-].C[NH2+]CCO [2-hydroxy-N-methylethanaminium propionate]  1081.37 ± 2.2 kg/m3
3  CC(=O)[O-].C[NH2+]CCO [N-methyl-2-hydroxyethylammonium acetate]  1110.13 ± 2.2 kg/m3
4  CC(C)C(=O)[O-].C[NH2+]CCO [2-hydroxy-N-methylethanaminium isobutyrate]  1053.24 ± 2.2 kg/m3
5  CCCCC(=O)[O-].C[NH2+]CCO [2-hydroxy-N-methylethanaminium pentanoate]  1026.67 ± 2.2 kg/m3
